From: PubChem BioAssay (NCI)

tested on: OVCAR-5 ovarian; assay: NCI-60 one-dose screen, 48 h; conditions: 10 µM unless noted
About 83,000 compounds went through this panel and 20% of them were active in at least one assay; those are over-represented in the sample as a whole. Active and inactive are the calls of the source. How the source made its calls: active means growth percent below 10; inactive means the rest.
Classes used: Yes (active), No (inactive)

Compound	Category
CC[C@]12C=CCN3CC[C@@]4(c5ccc(OC)cc5N(C)[C@H]4[C@@](O)(C(=O)OC)[C@@H]1OC(=O)CCC(=O)O[C@H]1CC[C@H]4[C@@H]5CCC6=CC(=O)CC[C@@H]6[C@H]5CC[C@]14C)[C@@H]32	No
Brc1ccc(-c2nnc3c4[nH]ccc4ncn23)cc1	No
O=C(Nc1ccc(CN2CCOCC2)c(C(F)(F)F)c1)c1nc2ccc3[nH]ncc3c2c2c1CCCC2	No
CCCCCCCCCCCCCCNC(=O)Nc1ccc(Cl)c(Cl)c1	No
COc1ccc(-c2cc(-c3ccc(OC)c(OC)c3)nc(SCCCCCC(=O)NO)n2)cc1	No
COc1ncc(-c2ccc3nccc(C#CCCCCC(=O)NO)c3c2)cc1NS(=O)(=O)c1ccc(F)cc1F	Yes
COc1ccc2c3ccnc(C(F)(F)F)c3n(CCCCN)c2c1	No
O=C(CCCCCCSc1nc(-c2ccc(Cl)cc2)cc(-c2ccc(Cl)cc2)n1)NO	No
CN(C)c1cc(NN=C(c2ccc(O)cc2)c2ccc(O)cc2)c([N+](=O)[O-])cc1[N+](=O)[O-]	No
O=c1[nH]c2cc(Cl)c(Cl)cc2n2cc3ncccc3c12	No
Cc1ccc(S(=O)(=O)Nc2ccccc2)cc1N	No
C[n+]1c(-c2ccccc2)c2cc(N)ccc2c2ccccc21	No
CCOC(=O)CC(c1ccccc1)C(C#N)c1ccccc1 (centres undefined)	No
O=S(=O)(c1ccc(N/N=C\c2ccccc2Cl)cc1)c1ccc(N/N=C/c2ccccc2Cl)cc1	No
COc1ccc(-c2cc(-c3ccccc3)nc(SCCCCCC(=O)NO)n2)cc1	No
CCOc1ccc(S(=O)(=O)Nc2ccc3c(c2)N(S(=O)(=O)CC)CCC3)cc1	No
CN(C)c1ccc(N=Nc2ccc3ccccc3c2)cc1	No
C#C[C@]1(O)CC[C@H]2[C@@H]3CC=C4c5nc(Nc6ncccn6)sc5CC[C@]4(C)[C@H]3CC[C@@]21C	No
CCN(CC)c1ccc2cc(C(Nc3ccc(C)cc3)c3nnnn3C(C)(C)C)c(=O)oc2c1 (centres undefined)	No
